- target: NET (Rattus norvegicus)
- Construct: from tissue
- Sequence (Q63380 1-617): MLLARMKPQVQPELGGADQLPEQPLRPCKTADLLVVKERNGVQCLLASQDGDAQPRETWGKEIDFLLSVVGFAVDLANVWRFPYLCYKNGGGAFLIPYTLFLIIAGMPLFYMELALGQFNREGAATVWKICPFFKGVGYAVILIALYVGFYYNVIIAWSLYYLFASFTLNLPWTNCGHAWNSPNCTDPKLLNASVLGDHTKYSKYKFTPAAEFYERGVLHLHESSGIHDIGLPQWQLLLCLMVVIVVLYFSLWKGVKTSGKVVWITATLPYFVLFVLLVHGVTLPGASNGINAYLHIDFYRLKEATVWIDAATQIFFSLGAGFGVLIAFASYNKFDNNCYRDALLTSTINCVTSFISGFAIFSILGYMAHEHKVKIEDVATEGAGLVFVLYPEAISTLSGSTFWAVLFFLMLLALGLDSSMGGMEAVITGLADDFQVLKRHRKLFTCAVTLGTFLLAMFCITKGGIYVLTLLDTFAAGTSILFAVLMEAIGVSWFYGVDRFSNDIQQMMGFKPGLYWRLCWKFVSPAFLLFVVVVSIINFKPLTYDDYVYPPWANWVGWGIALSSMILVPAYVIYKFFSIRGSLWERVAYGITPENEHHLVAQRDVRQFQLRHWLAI
- protocolDescription: Inhibition of [3H]NE uptake by NET
- Format: biochemical
- measurementParameters: text summary of Table 4
measurementName: Blockade of NET, in words

In [3]: df
Out[3]:
                                   molecule   endpointresult
0  COc1cc(CN[C@@H]2CO[C@H](C(c3ccccc3)c3ccccc3)C[C@H]2O)cc(OC)c1 [(−)-29f]  potent blockers
1  COc1ccc(CN[C@@H]2CO[C@H](C(c3ccccc3)c3ccccc3)C[C@H]2O)cc1 [(−)-29a]  potent blockers
2  COc1ccc(CN[C@@H]2CO[C@H](C(c3ccccc3)c3ccccc3)C[C@H]2O)c(OC)c1 [(−)-29e]  potent blockers
